The measurements presented in this section are drawn from paper PMC9468151.

# TEST_METHOD_NOTES: In vitro cytotoxicity assay (MTT)
# Assay type: cell-based, mouse
# CONDITION_INFO: mouse, RAW264.7 cells; RAW264.7, MTT
READOUT_LABEL: CC50 at 24 h (µM)
Answers are plain numbers, in µM.

# example entries with known answers
CCOC(=O)c1sc(NC(=O)/C(=N/Nc2ccccc2C(=O)O)C(C)=O)nc1C
44.6
CC(=O)/C(=N\Nc1ccccc1C(=O)O)C(=O)Nc1ccccn1
62.5

Please report the measured CC50 at 24 h for CCOC(=O)c1sc(NC(=O)/C(=N/Nc2ccc(O)cc2C(=O)O)C(C)=O)nc1C 93.9
